# Assay Notes: pharmacokinetic profiling in preterm rabbits
# Assay type: in vivo, rabbit
# Condition Description: rabbit, lung and plasma, inhaled or intranasal; intratracheal 1 mg/kg; read-out: AUCLung/AUCPlasma
Quantity Name: Kp
// no unit, no text: just the number

# Kp (molecule: CN(CCOc1ccc(CC2SC(=O)NC2=O)cc1)c1ccccn1 (stereo not shown) ) is 0.7

====

# Assay Notes: Caco-2 permeability assay
# Assay type: in vitro ADME
# Condition Description: human, Caco-2, pH 7.4, with Elacridar (GF120918), concentration not given; apical to basolateral, with Elacridar; read-out: Papp with Pgp Inhibitor (A–B)
Quantity Name: Papp A→B at 2 h, 10 µM (×10⁻⁶ cm/s)
Give the quantity in ×10⁻⁶ cm/s, number only.

• CN(CCOc1ccc(CC2SC(=O)NC2=O)cc1)c1ccccn1 (centres unmarked) = 16.3

Now let's try a different one.
Reported Papp A→B at 2 h, 10 µM for CCc1ccc(CCOc2ccc(CC3SC(=O)NC3=O)cc2)nc1 (centres unmarked) was 12.3

Every entry's value here was drawn from paper PMC9320886.
